// reported TGI per item
Test system: SK-MEL-2 melanoma
METHOD_SUMMARY: NCI tumour cell line growth inhibition, 48 h
*1 amine or outer side, *2 acyl side, *3 side chain or, on linkers, in order; H or OH if unused. Where a SMILES comes first, the peptide text is derived from it. [ ]: non-standard residue; d: D form. X33 = C=CCC(O[*:1])C(=O)[*:2]; NMeV = CN[CH](C(=O)O)C(C)C; NMeA = CN[CH](C)C(=O)O; βAla = NCCC(=O)O

In: What does the record list as TGI for CC(C)C/C=C/C1=NN(c2cccc(S(=O)(=O)O)c2)C2(C1)SCC(=O)N2c1nc2ccccc2s1 (configuration not stated) ?
Out: > 100 µM

In: Same question for N#Cc1[nH]c(=O)n(-c2cccc3ccccc23)c1N please.
Out: > 10 µM

In: Same question for CC(=O)O[C@H]1CCn2c3c(c(C)c21)C(=O)C(N1CC1)=C(C)C3=O please.
Out: > 10 µM

In: Same question for COc1cc(/C=C2\C(=O)N(Cc3ccccc3)C(c3ccccc3)S2(=O)=O)cc(OC)c1OC (configuration not stated) please.
Out: > 100 µM

In: Same question for CCOC(=O)c1nc(Nc2ccc(Cl)cc2)c2ccccc2n1 please.
Out: 30.4 µM

In: Same question for C/C(CC1SCCCS1)=C(/C)CC1SCCCS1 please.
Out: > 100 µM

In: Same question for C=CC1C(OC2OC(CO)C(O)C(O)C2O)OC=C(C(=O)OC)C1CC=O (configuration not stated) please.
Out: > 100 µM

In: Same question for Cc1ccc2c(c1)C(=O)c1c-2n(CCCBr)c(=O)c2cc([N+](=O)[O-])ccc12 please.
Out: > 100 µM

In: Same question for CC(C)C1COC(c2cccc(C3=N[C@@H](C(C)C)CO3)n2)=N1 (some centres not stated) please.
Out: > 100 µM

In: Same question for COCCNc1cc(NC(=O)N2CCCc3cc(CN4CCN(C)CC4=O)c(C=O)nc32)ncc1C#N please.
Out: > 50 µM

In: Same question for CC(C)C12C=CC(C)(CC1)n1c(=O)c3cc4ccccc4cc3c(=O)n12 (configuration not stated) please.
Out: > 100 µM

In: Same question for COC(=O)c1cc(-c2cccn2C)c2c(c1C(=O)OC)c1ccccc1n2C please.
Out: > 100 µM

In: Same question for Nc1cc(N)c2nc(-c3ccccc3)c(NCc3ccc(F)cc3)nc2c1 please.
Out: > 100 µM

In: Same question for C=CCC1OC(=O)CCNC(=O)C(C)N(C)C(=O)C(C(C)C)N(C)C(=O)C(C(C)CC)NC(=O)C2CCCN2C1=O (configuration not stated) (cyclo([X33]PI[NMeV][NMeA][βAla]); configuration not given here) please.
Out: > 100 µM

In: Same question for COC(=O)C1=C(C)NC(C)=C(C(=O)OC)C1c1cccc(NO)c1 please.
Out: 30.8 µM
